test: yeast display, Sf9 membrane polyspecificity reagent, FACS + sequencing; frameworks hold sequencing errors
REPORTED_PROPERTY: polyreactivity (PSR sort gate)

Examples from the recorded data:
>  <BIOPOLYMER_SEQUENCE>
QGQLVESGGGLVQAGGSLRLSCAASGRTFTAYAMGWYRQAPRKERELVASISSGSSTYYADSVKGRFTISRDNAKYTVYLQMNSLKPEDTAVYYCAARDGYRYYKGKRMGYWGQGTQVTVSS

>  <MEAS_VALUE>
high polyreactivity

$$$$
>  <BIOPOLYMER_SEQUENCE>
QVQLVESGGGLVQAGGRLRLSCAASGRIFVYYAMGWYRQAPGQERELVAAITYSVDSTYYADSVKGRFTISRDNAKNTVYLQMNSLKPEDTAVYYCATDVDWAYGYQYEYWGQGTQVTVSS

>  <MEAS_VALUE>
low polyreactivity

$$$$
>  <BIOPOLYMER_SEQUENCE>
QVQLVESGGGLVQAGGSLRLSCAASGLTFYYYAMGWYRQAPGKERELVAGISGSDGSTYYADSVKGRFTISRDNAKNTVYLQMNSLKPEDTAVYYCAAEYYYPWPLYYITDGIYDMYYWGQGTQVTVSS

>  <MEAS_VALUE>
low polyreactivity

$$$$
>  <BIOPOLYMER_SEQUENCE>
QVQLIESGGGLVQAGGSLRLSCAASGIIFRTYAMGWYRQAPGKERELVAAITSGGSTNYADSVKGRFTISRDNAKNTVYLQMNSLKPEDTAVYYCAARTYTSRYSYGYWGQGTQVTVSS

>  <MEAS_VALUE>
high polyreactivity

$$$$
>  <BIOPOLYMER_SEQUENCE>
QVQLVESGGGLVQAGGSLRLSCAASGSTLYPYAMGWYRQAPGKEWELVAVITLRGGSTYYADSVKGRFTISRDNAKNSVSVQMKSLKPEDTAVYYCAADPRKVHSDDYDYWGQGTQVNVSS

>  <MEAS_VALUE>
high polyreactivity

$$$$
>  <BIOPOLYMER_SEQUENCE>
QVQLVESGGGLVQAGGSLRLSCAASGRTFFYYKMGLSRQAPGKESELVATISWRGGSTYYADSVKGRFTISRDNAKNTVYLHINSLNPEDTSVFYCAARYRSRFDSWGQGSQVTVSS

>  <MEAS_VALUE>
high polyreactivity

$$$$

**Q:** Request the reported polyreactivity (PSR sort gate) associated with `QVQLVESGGGLVQAGGSLRLSCAASGRIFQYYAMGWYRQATGKERELVAAISRTGSPYYADSVKGRVTISRDNAKNTVSLQMNSLTPADTAVYFCAADYWPQSNRWVYFRYGYWGLGTQVTVSS`
**A:** high polyreactivity

**Q:** State the recorded polyreactivity (PSR sort gate) for this entry: `QVQLEESGGGLVQAGGSLRLSCAASGSIFRSYAMGWYRQAPGKEREFVAAINSRSGSTYYADSVKGRFTISRDNAKNTVYLQMNSLKPEDTAVYYCAAKFAQPDYRYDYWGQGTQVTVSS`
**A:** high polyreactivity

**Q:** Reported polyreactivity (PSR sort gate), sequence `QVQLVESGGGLVQAGGSLRLSCAASGFTFYTYVMGWYRQAPGKERELVAAITSGVSTNYADSVKGRFTISRDNAKNTVYLQMNSVKPEDTAVYYCAAGYPSWYYGYPYDSWGQGTQVTVSS` : ____
**A:** low polyreactivity

**Q:** What does the data say about its polyreactivity (PSR sort gate)? Entry: `QFQLVESGGGLVQAGGSLRLSCAASGSIFISNAMGWYRQAPGKERDLVAAISWTSGSTYYADSVKGRFTISRDNAKNTVYLQMNSLKPVDTAFYYCAALGGAALDWGVVEVGYWGKGTQVTVSS`
**A:** low polyreactivity

**Q:** I would be grateful if you could share the reported polyreactivity (PSR sort gate) for `QVQLVESGGGLGQAGGSLRLSCAASGYTFARNAMGWYRQAPGKEREMVAAINWSGTNTYYADSVKGRFTISRDNAKNTVYLQMNSLKPEDTAVYYCAKDLYFSGYEFDYWGQGTQVTVSS` .
**A:** low polyreactivity

---

experiment: yeast display, Sf9 membrane polyspecificity reagent, FACS + sequencing; frameworks hold sequencing errors
REPORTED_PROPERTY: polyreactivity (PSR sort gate)

Below, 4 sequences whose answers are already recorded.
>  <BIOPOLYMER_SEQUENCE>
QVQLVESGGGLVQAGGSLRLSCAASGFIFSSYAMGWYRQAPGKEREFVAVISTGGGSTYYADSVKGRFTISRDNAKITVYLQMNSLKPEDTAVYYCAAKLYDSGGRYWYDYWGQGTQVTVSS

>  <polyreactivity (PSR sort gate)>
high polyreactivity

$$$$
>  <BIOPOLYMER_SEQUENCE>
QVQLVESGGGLVQAGGSLRLSCAASGSIFRRNTMGWYRQAPGKERELVAAITFTGGRTYYADSVKGRFTISRDNAKNTVYLQMNSLKPEDTAVYYCNRVTAYYPTKFDYWGQGTQVTVSS

>  <polyreactivity (PSR sort gate)>
high polyreactivity

$$$$
>  <BIOPOLYMER_SEQUENCE>
QVHLVESGGGLVQAGGRLRLSCAASALTYAYYAMGRYREAPRKERELVAAITTGGTTNYADSVKGRFTISRDNAKNTVYLQMNSLKTEDTAVYYCARLYRSGYEYWGQGTQVTVSS

>  <polyreactivity (PSR sort gate)>
low polyreactivity

$$$$
>  <BIOPOLYMER_SEQUENCE>
QVQLVESGGGKVQAGRSHRLTCAASGSIFYTYPMGWYRQAPGKERELVAAIRSSDGSTYYADSVKGRFTISRDYAKNTVYIQMNSLKSEYTGVYYCAAENIPGEGYYHFEYDYWGQGTQVTVSS

>  <polyreactivity (PSR sort gate)>
low polyreactivity

$$$$

Let's switch to this sequence now.
**Q:** polyreactivity (PSR sort gate) for `QVQLVESGGGLVQAGGSLRLSCAASGRTLWIYAMGWYRQAPGKERELVASITTRGGSTYYADSVKGRFTISRDNAKNTVYLQMNSLKPEDTAVYYCAAEGYTYYTYYPHDYWGQGTQVTVSS` ?
**A:** high polyreactivity

---

assay: yeast display, Sf9 membrane polyspecificity reagent, FACS + sequencing; frameworks hold sequencing errors

>  <BIOPOLYMER_SEQUENCE>
QVQLVESGGGLVQAGGSLRLSCAASGLIFYRNAMGWYRQAPGKERELVAAIRFSTGSTYYADSVKGRFTISRDNAKNSVYLQMNSLKPEDSAVYCCAAALPGYGDYYYWGQGTQVTVSS

>  <polyreactivity (PSR sort gate)>
high polyreactivity

$$$$
>  <BIOPOLYMER_SEQUENCE>
QYQLVESVGGLDQAGGTLRLSCAASARIFSYYAMGWYRQAPGKERELVATISYSGGSTYYADSVKGRFTISRDKAKNTVYLQMNSLKPEDSAVYYCAATRYPYFSFVRFPSRRFNYWGQGTQVTVSS

>  <polyreactivity (PSR sort gate)>
high polyreactivity

$$$$
>  <BIOPOLYMER_SEQUENCE>
QVQLVESGGGLVQAGGSLRLSCAASGRTFYRNAMGWYRQAPGKERELVATINSGGSTHYADSVKGRFTISRDNAKNSVYLQMNSLKPEDTAVYYCAARSPSYRGSLSYYWGHGTQVTVSS

>  <polyreactivity (PSR sort gate)>
high polyreactivity

$$$$

---

test: yeast display, Sf9 membrane polyspecificity reagent, FACS + sequencing; frameworks hold sequencing errors
REPORTED_PROPERTY: polyreactivity (PSR sort gate)

Examples with answers:
>  <BIOPOLYMER_SEQUENCE>
QVQLVESGGGLVQAGGSLRLSCAASGRTFDGYTLGGYRQAPGKERELVAAISTGGGSTYYADSVKGRFTISRDNAKNTVYVQLNSLKPEDTAVYDCAARGGSYSFRRYNYWGQGTQVTVSS

>  <polyreactivity (PSR sort gate)>
high polyreactivity

$$$$
>  <BIOPOLYMER_SEQUENCE>
QVQLVESGGGLVQAGGSLRLSCAASGRTFYYNAMGWYRQAPGKERELVARISTIGGNTFYADSVKGRFTISRDNAKNTVYLQMNSLKPEDTAVYYCATTGGPSWRKYDYWGQGTQVTVSS

>  <polyreactivity (PSR sort gate)>
high polyreactivity

$$$$
>  <BIOPOLYMER_SEQUENCE>
QVQLVESGGGLVQAGGILRLSCAASGSTFTDSDMGWYRQAPGKERELVAAITSGGSTNYADSVKGRFTISLDNAKYTVYLPMNSLKPEDSAVYYCAAADADRKYDYWGQGTQVTVSS

>  <polyreactivity (PSR sort gate)>
low polyreactivity

$$$$
>  <BIOPOLYMER_SEQUENCE>
QVQLVESGGGLVQAGGSLRLSCAASGGIFYDYTMGWYRQAPGKERELVAVISSSGSTYYADSVKGRFTISRDNAKNTVYLLMNSLKPEDTAVYYCNALGWYGDYDYWGQGTQVTVSS

>  <polyreactivity (PSR sort gate)>
low polyreactivity

$$$$
>  <BIOPOLYMER_SEQUENCE>
QVQLVESGGGLVQAGGSLRLSCAASGIPRNTMGWYRQAPGKERELVASISTSGGSTYYADSVKGRFTLSRDNANNTVYLQMNSLKPEDTAVYYCAKKGYASRYFIYDYWGQGTQVTVSS

>  <polyreactivity (PSR sort gate)>
low polyreactivity

$$$$
>  <BIOPOLYMER_SEQUENCE>
QVQLVESGGGLVQAGGSLRLSWAASGSTFIGYAMGWYRQAPGKERELVAAISWSGGLTYYADSVKGRFTFSRDNAKNTVYLQMNSLKPEDTAVYYCNTVPYGISVQFNYWGQGTQVTVSS

>  <polyreactivity (PSR sort gate)>
high polyreactivity

$$$$
>  <BIOPOLYMER_SEQUENCE>
QVQLVESGGGLVQAGGSLRLSCAASGSIFDTYAMGWYRQAPGKERELVAAITWSGSSTYYADSVKGRFTISRDNAKNTVYLQMNSLKPEDTAVYYCAKDYYVEVTTEYDYWGQGTQVTVSS

>  <polyreactivity (PSR sort gate)>
high polyreactivity

$$$$
>  <BIOPOLYMER_SEQUENCE>
QVQLVESGGGLVQAGGSLRLSCAASGNIFAVYAMGWYRQAPGKERELVAAISYSSTRTYYADSVKGRFRISRDNAKNTVYLQMNSLKPEDTAVYYCAVETWWDYDYWGQGTQVTVSS

>  <polyreactivity (PSR sort gate)>
high polyreactivity

$$$$
>  <BIOPOLYMER_SEQUENCE>
QVQLVESGGGLVQAGGSLRLSCAASGIIFNDYAMGWYRQAPGKERELVAAISWSGGRTYYADSVKGRFTISRDNAKNTVYLQMNSLKPEDTAVYYCNARARQYSAFPVVERNYWGQGTQVTVSS

>  <polyreactivity (PSR sort gate)>
high polyreactivity

$$$$
>  <BIOPOLYMER_SEQUENCE>
QVQLVESGGGIVQAGGSLRLSCAASGRTFQANAMGWYRQAPGKERELVAVISSRGTRTYYADSVKGRFTISRDNAKNTVYLQMNSLKPEDTAVYYCAARVPSVGNQSGYDYWGQGTQVTVSS

>  <polyreactivity (PSR sort gate)>
high polyreactivity

$$$$

Turning now to a further record.
**Q:** Fill in: polyreactivity (PSR sort gate) of `QVQLQESGGGLVQAGGSLRQSCEASGYIFPYYSMGWYRQAPGKERGLVACIAAGTTTNYADSVKVRFTISRDNAKNTVYLQMNSLKPEDAAVYYCAALNAFNPGHWYWGQGSQVTVSS` is ___
**A:** low polyreactivity
